Target: UniProtKB P37136
Sequence (P37136 32-614): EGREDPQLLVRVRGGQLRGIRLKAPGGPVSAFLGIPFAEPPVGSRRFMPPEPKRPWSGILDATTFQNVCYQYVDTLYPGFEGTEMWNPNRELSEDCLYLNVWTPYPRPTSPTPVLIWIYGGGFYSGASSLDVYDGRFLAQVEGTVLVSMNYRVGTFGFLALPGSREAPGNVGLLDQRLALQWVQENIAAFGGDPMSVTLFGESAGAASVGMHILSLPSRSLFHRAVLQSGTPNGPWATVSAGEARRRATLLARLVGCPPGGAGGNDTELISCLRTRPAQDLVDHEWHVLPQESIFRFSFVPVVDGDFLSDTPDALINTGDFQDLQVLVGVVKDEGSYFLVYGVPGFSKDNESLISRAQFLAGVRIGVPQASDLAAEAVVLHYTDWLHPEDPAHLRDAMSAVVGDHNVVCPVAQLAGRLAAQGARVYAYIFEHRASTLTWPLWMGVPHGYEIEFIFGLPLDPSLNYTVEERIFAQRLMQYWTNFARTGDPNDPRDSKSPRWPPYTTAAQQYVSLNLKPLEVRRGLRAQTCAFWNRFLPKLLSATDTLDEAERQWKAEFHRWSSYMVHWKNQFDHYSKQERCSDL
pIC50 reference
Value format note: pIC50 is -log10 of concentration (mol/L); just state the number.

Solved entries:
molecule	target of assay	pIC50
CCN(CC)CCCCOc1ccc(/C=C/C(=O)c2c(O)cc(OC)c(OC)c2OC)cc1	UniProtKB P37136	5.31
CCN(CCCCOc1ccc(/C=C/C(=O)c2c(O)cc(OC)c(OC)c2OC)cc1)Cc1ccccc1OC	UniProtKB P37136	6.49
COc1ccccc1CN(C)CCCCOc1ccc(/C=C/C(=O)c2c(O)cc(OC)c(OC)c2OC)cc1	UniProtKB P37136	5.75
COc1ccccc1CN(C)CCCCCCOc1ccc(/C=C/C(=O)c2c(O)cc(OC)c(O)c2OC)cc1 [Compound 17e]	UniProtKB P37136	5.85

# pIC50 lookup, item `COc1ccccc1CN(C)CCCCCCOc1ccc(/C=C/C(=O)c2c(O)cc(OC)c(OC)c2OC)cc1`
5.77
